- Tested on: Pseudomonas aeruginosa
- testName: Antibacterial activity against Pseudomonas aeruginosa ATCC 15442 measured after overnight incubation
- Assay type: functional
- appliedConditions: read-out: MIC
propertyName: log10 MIC (log10 of the value in µM)

# compound, readoutNumber
rows = [
    ("O=C(O)CC1(CNCN2CCNCC2)CCCCC1", 2.38),
    ("O=C(O)c1ccc(NCN2CCN(c3cc4c(cc3F)c(=O)c(C(=O)O)cn4C3CC3)CC2)cc1", 0.92),
    ("O=C(O)CC1(CNCN2CCN(c3cc4c(cc3F)c(=O)c(C(=O)O)cn4C3CC3)CC2)CCCCC1", 1.19),
    ("NS(=O)(=O)c1ccc(NCN2CCN(c3cc4c(cc3F)c(=O)c(C(=O)O)cn4C3CC3)CC2)cc1", 0.28),
    ("O=C(NNCCN1CCN(c2cc3c(cc2F)c(=O)c(C(=O)O)cn3C2CC2)CC1)c1ccncc1", 0.60),
    ("NS(=O)(=O)c1ccc(NC(=O)CC2(CNCN3CCN(c4cc5c(cc4F)c(=O)c(C(=O)O)cn5C4CC4)CC3)CCCCC2)cc1", -0.15),
    ("NS(=O)(=O)c1ccc(NCCN2CCN(c3cc4c(cc3F)c(=O)c(C(=O)O)cn4C3CC3)CC2)cc1", 0.88),
    ("O=C(O)CC1(CNCCN2CCN(c3cc4c(cc3F)c(=O)c(C(=O)O)cn4C3CC3)CC2)CCCCC1", 1.18),
    ("C=CC1=C(C(=O)O)N2C(=O)[C@@H](NC(=O)/C(=N\\OCC(=O)O)c3csc(N)n3)[C@H]2SC1 [CEFIXIME]", -1.22),
    ("O=C(O)c1ccc(NCCN2CCN(c3cc4c(cc3F)c(=O)c(C(=O)O)cn4C3CC3)CC2)cc1", 0.00),
    ("COc1nc(NNC(=O)c2ccncc2)nc(N2CCNCC2)n1", 1.99),
    ("O=C(NNCN1CCN(c2cc3c(cc2F)c(=O)c(C(=O)O)cn3C2CC2)CC1)c1ccncc1", 0.89),
]

* * *

- System: Streptococcus pyogenes
- testName: Antibacterial activity against Streptococcus hemolyticus clinical isolates measured after overnight incubation
- Type: functional
Listed here: items and their measured MIC.
propertyName: MIC (µM)

# chemicalStructure, propertyName, endpointUnit, readoutNumber
data = [
    ("O=C(NNCN1CCN(c2cc3c(cc2F)c(=O)c(C(=O)O)cn3C2CC2)CC1)c1ccncc1", "MIC", "µM", 8.3),
    ("NS(=O)(=O)c1ccc(NCCN2CCN(c3cc4c(cc3F)c(=O)c(C(=O)O)cn4C3CC3)CC2)cc1", "MIC", "µM", 3.7),
    ("O=C(NNCCN1CCN(c2cc3c(cc2F)c(=O)c(C(=O)O)cn3C2CC2)CC1)c1ccncc1", "MIC", "µM", 8),
    ("O=C(O)c1ccc(NCN2CCN(c3cc4c(cc3F)c(=O)c(C(=O)O)cn4C3CC3)CC2)cc1", "MIC", "µM", 8.3),
]

* * *

molecules and their reported MIC
- System: Klebsiella pneumoniae
- testName: Antibacterial activity against Klebsiella pneumoniae ATCC 1705 measured after overnight incubation
- Format: functional
- appliedConditions: ATCC BAA-1705

# chemicalStructure, MIC
measured = [
    ("NS(=O)(=O)c1ccc(NCN2CCN(c3cc4c(cc3F)c(=O)c(C(=O)O)cn4C3CC3)CC2)cc1", "1.9 µM"),
    ("O=C(O)CC1(CNCN2CCNCC2)CCCCC1", "238 µM"),
    ("O=C(O)c1ccc(NCN2CCN(c3cc4c(cc3F)c(=O)c(C(=O)O)cn4C3CC3)CC2)cc1", "16.6 µM"),
    ("O=C(NNCN1CCN(c2cc3c(cc2F)c(=O)c(C(=O)O)cn3C2CC2)CC1)c1ccncc1", "7.7 µM"),
    ("O=C(O)CC1(CNCN2CCN(c3cc4c(cc3F)c(=O)c(C(=O)O)cn4C3CC3)CC2)CCCCC1", "15.5 µM"),
    ("O=C(O)c1ccc(NCCN2CCN(c3cc4c(cc3F)c(=O)c(C(=O)O)cn4C3CC3)CC2)cc1", "2 µM"),
    ("O=C(O)c1ccc(NCN2CCNCC2)cc1", "1090 µM"),
    ("NS(=O)(=O)c1ccc(NC(=O)CC2(CNCN3CCN(c4cc5c(cc4F)c(=O)c(C(=O)O)cn5C4CC4)CC3)CCCCC2)cc1", "0.7 µM"),
]

* * *

Entries and their MIC values follow.
- System: Klebsiella pneumoniae
- testName: Antibacterial activity against Klebsiella pneumoniae ATCC 1705 measured after overnight incubation
- Type: functional
- appliedConditions: ATCC BAA-1705

# chemicalStructure, MIC
measured = [
    ("COc1nc(NNC(=O)c2ccncc2)nc(N2CCNCC2)n1", "197 µM"),
    ("O=C(NNCCN1CCN(c2cc3c(cc2F)c(=O)c(C(=O)O)cn3C2CC2)CC1)c1ccncc1", "4 µM"),
    ("O=C(O)CC1(CNCCN2CCN(c3cc4c(cc3F)c(=O)c(C(=O)O)cn4C3CC3)CC2)CCCCC1", "7.5 µM"),
    ("NS(=O)(=O)c1ccc(NCCN2CCN(c3cc4c(cc3F)c(=O)c(C(=O)O)cn4C3CC3)CC2)cc1", "7.5 µM"),
]

* * *

- System: Streptococcus pyogenes
- testName: Antibacterial activity against Streptococcus hemolyticus clinical isolates measured after overnight incubation
- Format: functional
In this section we review reported MIC values for a set of compounds.
propertyName: MIC (µM)

# chemicalStructure, propertyName, readoutNumber
data = [
    ("NS(=O)(=O)c1ccc(NCN2CCN(c3cc4c(cc3F)c(=O)c(C(=O)O)cn4C3CC3)CC2)cc1", "MIC", 7.7),
    ("O=C(O)CC1(CNCN2CCN(c3cc4c(cc3F)c(=O)c(C(=O)O)cn4C3CC3)CC2)CCCCC1", "MIC", 62.1),
]
